Please find below IC50 data on UniProt Q99705 compiled from the literature.
All answers are understood in µM, so give the number only.

What is its IC50 for UniProt Q99705? Entry: CCCNCCc1ccc2cc(-n3ccc(OCc4ccccc4)cc3=O)ccc2n1
0.0029

Kindly state the measured IC50 obtained for Cc1cc(CN2CC[C@@H](O)C2)ccc1C(=O)Cn1ccc(OCc2ccccc2)cc1=O with UniProt Q99705.
0.053

# get_value(readout= IC50, system= UniProt Q99705) for CC(C)(O)CCOc1ccc(-n2ccc(OCc3ccc(F)cc3)cc2=O)cc1
0.023

Param readout= IC50; system= UniProt Q99705; entry= COc1ccc2nc(N3CC4CCC(C3)C4N(C)Cc3ccsc3)cc(C)c2c1 (stereo not shown) ; returns value.
0.56

Record CC(C)c1cn2cc(NC(=O)c3ccc(-c4ccc(F)cc4)cc3)ccc2n1 : what is its IC50 with UniProt Q99705?
0.0031

----------
Please find below IC50 data on Melanin-concentrating hormone receptor 1 (Homo sapiens, UniProt Q99705) compiled from the literature.
A number alone suffices; assume nM.

Previously resolved entries follow.
Name the recorded IC50 for COc1ccc2nc(N[C@H]3CC[C@H](NCc4ccc(-c5cccs5)s4)C3)cc(C)c2c1 .
94

// returns reported IC50 for input Cc1cc(CN2CC[C@H](O)C2)ccc1C(=O)Cn1ncc(OCc2ccccc2)cc1=O
11

Can you share its IC50? I mean this compound: CN1C(=O)CCC12CCN(c1ccc3cc(NC(=O)c4ncc(-c5ccc(F)cc5)cn4)ccc3n1)C2 (stereo not shown)
8

Now look at this one.
Which measured IC50 value corresponds to O=C(c1nnc(-c2ccccc2)o1)N1CC(Oc2ccc(CN3CC4(COC4)C3)c(Cl)c2)C1 ?
17

----------
pIC50 values for Melanin-concentrating hormone receptor 1 (Homo sapiens, UniProt Q99705) compiled from several publications are listed below.
pIC50: −log10 of the molar value.
Output condition met for pIC50 not less than 8; output condition not met otherwise.

Answered cases to consult:
Reported pIC50 at or above 8? Cc1cc(CN2CC(O)C2)ccc1C(=O)Cn1ncc(OCc2ccc(Br)cn2)cc1=O
condition not met

Tell me whether pIC50 is at least 8 here: O=c1cc(OCc2ccccc2)cnn1CCc1ccc(CN2CCCC2)cc1
condition met

Form field: pIC50 at least 8? Entry: CCO/N=C(\c1ccc(F)c(F)c1)c1ccc(CN2CCC3(CCN(c4ccnnc4)C3)C2)cn1 (centres unmarked)
condition met

New cases:
Please tell me: is the compound Cc1cc(CN(C)C(C)C)ccc1C(=O)Cn1ccc(OCc2ccc(Br)cn2)cc1=O at or over 8 in terms of pIC50?
condition not met

// inclusive: pIC50 at least 8? input: O=C(CCc1cccc(Cl)c1)NC1CCN(Cc2ccn(-c3ccc(C(F)(F)F)cc3)c2)CC1
condition not met

Could you tell me if the measured pIC50 of CCc1nc2ccc(NC(=O)c3ccc(OCc4ccccn4)c(F)c3)cn2c1C reaches 8 or more?
condition met

----------
# IC50 against Melanin-concentrating hormone receptor 1 (Homo sapiens), merged from multiple literature sources
Answer in nM, number only, no unit symbol.

Query IC50 on Melanin-concentrating hormone receptor 1 (Homo sapiens) for Fc1ccc(C2CCN(Cc3cnc(/C(=N/OC4CC4)c4ccc(F)c(F)c4)nc3)CC2)cn1
9.7

Observed IC50 on Melanin-concentrating hormone receptor 1 (Homo sapiens) for O=c1cc(OCc2ccc(Cl)cn2)ccn1-c1ccc2nc(CN3CCC3)ccc2c1 , please.
5.9

Param readout = IC50; param system = Melanin-concentrating hormone receptor 1 (Homo sapiens); param query = c1ccc(COc2ccc(CCc3ccc(CN4CCCC4)cn3)nn2)cc1 ; response: value
16

Find the measured IC50: item COc1cc(CN2CCCC23COC3)ccc1OC1CN(C(=O)c2nnc(-c3ccc(C(F)F)cc3)o2)C1 , target or system Melanin-concentrating hormone receptor 1 (Homo sapiens).
150

State its IC50 on Melanin-concentrating hormone receptor 1 (Homo sapiens): COc1cc(-n2ccc(OCc3ccc(F)cc3)cc2=O)ccc1OCCC(C)(C)O
84

Lab request: please report IC50 under test system Melanin-concentrating hormone receptor 1 (Homo sapiens) for c1ccc(COc2ccc(CCc3ccc(CN4CCOCC4)cc3)nn2)cc1
4

Record lookup: for Melanin-concentrating hormone receptor 1 (Homo sapiens), what IC50 belongs to O=c1cc(OCc2ccco2)ccn1CCc1ccc(CN2CCCC2)cc1 ?
13

Requested read-out IC50, target or system Melanin-concentrating hormone receptor 1 (Homo sapiens), entry COc1ccc(COc2cnn(CC(=O)c3ccc(CN(C)C)cc3C)c(=O)c2)nc1
28

----------
# literature pull: Melanin-concentrating hormone receptor 1 (Homo sapiens, UniProt Q99705) pIC50
// pIC50: -log10(molar conc.)

Example entries and their recorded answers appear below.
Returns the measured pIC50 for the input compound. Input: COc1cc(C(=O)NC2CCN(Cc3cc4sccc4n3C)CC2)cc(OC)c1C
7.80

Item under review: OC[C@@H]1CCCN1CC1CCc2cc(C#Cc3ccc(-c4ccc(Cl)cc4)cn3)ccc2O1 (some centres unmarked) . Reported pIC50?
8.22

What value of measured pIC50 is listed for Cc1cc(CN2CCCC[C@@H]2CO)ccc1C(=O)Cn1ccc(OCc2ccc(Br)cn2)cc1=O ?
7.85

For the compound shown here, Cc1cc(CN2CCC(O)CC2)ccc1C(=O)Cn1ncc(OCc2ccc(F)cn2)cc1=O , give the reported pIC50.
7.24

Entry CN1CCc2cc(C(=O)Cn3ccc(OCc4ccccc4)cc3=O)ccc2C1 : reported pIC50 = ?
7.68

Others:
Record request: pIC50 value, item Cc1cc(CN2CCC[C@H](O)C2)ccc1C(=O)Cn1ccc(OCc2ccccc2)cc1=O
7.54

# lookup: pIC50 of OCCCN(CCOc1ccc(C#Cc2ccc(-c3ccc(Cl)cc3)cn2)cc1)CC1(O)CC1
7.86

Tell me the measured pIC50 of O=c1cc(OCc2ccccc2)ccn1-c1ccc2cc(CN3CCC3)ccc2n1 , please.
8.12

----------
Below are IC50 values for Melanin-concentrating hormone receptor 1 (Homo sapiens) collected from several publications.

Query (compound): O=C(CC(=O)c1ccc(-c2ccccc2)cc1)NCCc1ccc(CN2CCCC2)cc1 ; field requested: IC50
63.7 nM

Look up IC50: O=C(Cn1ncc(OCc2ccccc2)cc1=O)c1ccc2c(c1)CNCC2
17 nM

More entries:
Query: IC50; subject: Cc1cc(CN2CCC[C@H]2CO)ccc1C(=O)Cn1ncc(OCc2ccc(Br)cn2)cc1=O
21 nM

What value of IC50 has been reported for the following compound? Cc1cc(CN2CC(O)C2)ccc1C(=O)Cn1ccc(OCc2ccccc2)cc1=O
20 nM

----------
Record set: IC50 | Melanin-concentrating hormone receptor 1 (Homo sapiens, UniProt Q99705) | literature, multiple sources.
Numeric answer only, unit nM assumed.

Enter reported IC50 observed with Melanin-concentrating hormone receptor 1 (Homo sapiens, UniProt Q99705) for CC(C)N(C)c1nc2ccc(NC(=O)CCc3ccc(C(F)(F)F)cc3)cc2[nH]1
5.8

GET /values?readout=IC50&system=Melanin-concentrating hormone receptor 1 (Homo sapiens, UniProt Q99705)&item= COc1cc(C(=O)NC2CCN(Cc3[nH]c4ccccc4c3C)CC2)cc(OC)c1C
6.8

Form field: IC50 recorded for CCCNCc1ccc2cc(-n3ccc(OCc4ccc(Cl)cn4)cc3=O)ccc2n1 with Melanin-concentrating hormone receptor 1 (Homo sapiens, UniProt Q99705) (enter value)
5.2

Next molecule, please.
Return IC50 measured with Melanin-concentrating hormone receptor 1 (Homo sapiens, UniProt Q99705) given this molecule: CC(C)N(C)c1nc2ccc(-n3ccc(OCCOc4ccc(F)cc4)cc3=O)cc2[nH]1
9.8

----------
Please find below IC50 measurements for Melanin-concentrating hormone receptor 1 (Homo sapiens), combined from several publications.
The label condition met is reserved for IC50 strictly under 10 nM; condition not met covers values equal to or above it.

Answer whether the compound O=C(Nc1ccc2nc(C3CC3)c(CO)n2c1)c1ccc(-c2ccc(C(F)(F)F)cc2)cc1 has IC50 strictly less than 10 nM
condition not met

Item O=C(NCCc1ccccc1)C1CCN(Cc2ccn(-c3ccc(C(F)(F)F)cc3)c2)CC1 : IC50 beneath 10 nM, strictly?
condition not met

Is IC50 strictly under 10 nM for the entry CC(C)N1CC[C@@H](Oc2ccc(-n3ccc(OCc4ccccc4)cc3=O)cc2)C1 ?
condition met

In the record for Cc1cc(CN2CC[C@@H](O)C2)ccc1C(=O)Cn1ccc(OCc2ccc(Cl)cn2)cc1=O , is IC50 less than 10 nM?
condition not met

Dear reviewer, please state whether Cc1cc(CN2CCC[C@@H](O)C2)ccc1C(=O)Cn1ccc(OCc2ccccc2)cc1=O has IC50 strictly beneath 10 nM.
condition not met

Here is another compound to look at.
Confirm or reject: IC50 of CSCC[C@@H]1NC(=O)[C@@H](NC(=O)CCCCNC(=N)N)CSSC[C@@H](C(N)=O)NC(=O)CCCNC(=O)CCCNC(=O)[C@H](Cc2ccc(O)cc2)NC(=O)[C@H](C(C)C)NC(=O)[C@H](CCCNC(=N)N)NC(=O)CNC(=O)[C@H](CC(C)C)NC1=O lies strictly below 10 nM
condition not met
